pull-down binding Z-score listing for selected sequences.
tested on: TO-N3 (biotin conjugate); assay: pull-down binding Z-score (relative to library population); higher = stronger binding; details: RNA library: Library-2
property measured: pull-down binding Z-score

* UGGGCCAAG [hsa-mir-3620] | 0.825
* GAAGGAAGGCAAGGCUGUCUGUCCAUC [hsa-mir-4800] | 1.03
* AGAUAGUGAAGUAGAUUAGCAUCUACU [hsa-mir-18a] | -0.387
* GGUUCAACUCUCCCUAGGAGGUCUGGAGCC [IAV_invivo_NP_5_Motif_11+IAV_invivo_NP_5_Motif_11] | -0.225
* UCUUUGGUAAUAAGGUUUGGCAAAGA [hsa-mir-576] | 0.862
* UAAGAGUAAUAGCUCUCUAGGUUAUUAUGAAUA [hsa-mir-5692c-1] | -0.449
* CUUGAUUUAAUGUCUAUACAAUUAAG [hsa-mir-124-3] | -0.159
* CCUUCACACUCAAAGGCGGUGCACCAACAAAGGUUACUUUUGGUGAUGACACUGUGAUAGAAGUGCAAGG [SHAPE_invitro_SARS-CoV-2_Motif_51] | -0.605
* AGCCUUCUAUUAUGCCCAGACAGGGCCACCAGAGGGCU [hsa-mir-4448] | -0.746
* GCCACUUGCGAAUUUUGUGGC | -0.312
* AAUUUUCUCUUGUCUAAAAGAAAAGAACG [hsa-mir-521-2] | -0.996
* UUGGUCUUUCCCCUGUGGUCCCAA [hsa-mir-2909] | -0.276
* UUUUCUUAAAUUGUAUAAAGAGAAAU [hsa-mir-944] | -0.741
* UGAGACCUGGUGCAGAACGGGAAGGCGA [hsa-mir-551b] | 1.23
* CAGAGACUUGAAGAUGUCUUUG [IAV_invivo_M1_M2_7_Motif_2+IAV_invivo_M1_M2_7_Motif_2] | -0.897
* UGUUGGCAUCAUUCUAUUGGAUUUGAUUACGUCUAUAAUCCGUUUAUGAUUGAUGUUCAACA | -0.712
* AUGUACAUCUUCUUUGCAUCAUUUUAUUAUGUAUGGAAAAGUUAUGUGCAU | -1.36
* GCGCGGGAAAGUUCGGGAACGCGCG [hsa-mir-4479] | 0.854
* GAGUAUUUUAAUACUGGCAUACUC [hsa-mir-1263] | -0.837
* UAAAUUUUUGGCUUUGUGUGCUGACUCUAUCAUUAUUGGUGGAGCUAAACUUAAAGCCUUGAAUUUA | -0.962
